system-name: UniProtKB Q9UBN7
Sequence (Q9UBN7 1-1215): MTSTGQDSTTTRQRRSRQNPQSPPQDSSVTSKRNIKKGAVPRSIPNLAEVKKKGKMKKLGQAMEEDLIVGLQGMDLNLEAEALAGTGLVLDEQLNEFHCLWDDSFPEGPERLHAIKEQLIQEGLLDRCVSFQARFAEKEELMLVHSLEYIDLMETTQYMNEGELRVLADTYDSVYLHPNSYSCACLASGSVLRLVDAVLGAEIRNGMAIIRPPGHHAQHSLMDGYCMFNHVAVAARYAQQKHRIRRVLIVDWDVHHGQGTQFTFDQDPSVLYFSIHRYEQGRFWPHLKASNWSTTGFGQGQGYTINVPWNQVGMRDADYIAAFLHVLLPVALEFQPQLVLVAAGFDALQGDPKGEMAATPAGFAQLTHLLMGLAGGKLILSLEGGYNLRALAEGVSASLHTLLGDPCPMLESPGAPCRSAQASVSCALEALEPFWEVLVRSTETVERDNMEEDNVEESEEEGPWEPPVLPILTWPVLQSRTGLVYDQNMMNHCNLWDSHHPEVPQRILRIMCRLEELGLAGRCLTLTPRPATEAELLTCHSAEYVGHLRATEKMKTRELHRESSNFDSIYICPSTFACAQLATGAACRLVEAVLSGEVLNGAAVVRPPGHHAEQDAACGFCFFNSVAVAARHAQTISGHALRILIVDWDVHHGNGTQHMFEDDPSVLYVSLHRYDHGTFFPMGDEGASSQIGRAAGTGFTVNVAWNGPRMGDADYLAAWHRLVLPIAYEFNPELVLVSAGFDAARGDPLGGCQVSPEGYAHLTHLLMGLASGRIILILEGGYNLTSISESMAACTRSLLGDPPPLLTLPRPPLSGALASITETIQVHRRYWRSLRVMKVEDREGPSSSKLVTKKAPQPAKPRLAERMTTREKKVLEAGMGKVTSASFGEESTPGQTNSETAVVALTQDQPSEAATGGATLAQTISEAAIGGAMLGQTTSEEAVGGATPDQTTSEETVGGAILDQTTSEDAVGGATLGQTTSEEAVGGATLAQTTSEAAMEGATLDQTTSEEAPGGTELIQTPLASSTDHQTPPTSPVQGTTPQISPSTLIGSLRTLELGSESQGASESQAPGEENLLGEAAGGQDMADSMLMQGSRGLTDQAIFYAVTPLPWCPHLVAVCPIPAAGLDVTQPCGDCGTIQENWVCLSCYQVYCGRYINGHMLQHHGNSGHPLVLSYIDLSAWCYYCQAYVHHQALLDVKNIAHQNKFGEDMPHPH
assay-method-text: Fluorometric HDAC activity assay, recombinant isoform
recorded-endpoint: pIC50
Just so you know, pIC50 here is -log10 of the concentration in molar units; reply with that number alone.

Recall the recorded pIC50 for COc1ccc(S(=O)(=O)N2CCc3cc(C=CC(=O)NO)cc(N)c32)cc1 with UniProtKB Q9UBN7 and state it. 5.36

====

system-name: HDAC8 (Homo sapiens)
Sequence (Q9BY41 whole entry, canonical isoform): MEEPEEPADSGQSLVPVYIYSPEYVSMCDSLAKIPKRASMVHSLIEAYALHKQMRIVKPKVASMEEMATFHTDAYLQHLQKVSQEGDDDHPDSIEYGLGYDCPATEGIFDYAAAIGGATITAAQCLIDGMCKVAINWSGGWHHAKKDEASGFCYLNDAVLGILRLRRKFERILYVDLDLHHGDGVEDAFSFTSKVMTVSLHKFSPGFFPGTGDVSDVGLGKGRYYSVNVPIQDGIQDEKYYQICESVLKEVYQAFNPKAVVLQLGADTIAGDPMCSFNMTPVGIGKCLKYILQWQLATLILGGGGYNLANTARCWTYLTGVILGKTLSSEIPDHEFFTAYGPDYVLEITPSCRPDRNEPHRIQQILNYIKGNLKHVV
assay-method-text: Fluorometric HDAC activity assay, recombinant isoform
recorded-endpoint: IC50 (µM)
Return type: number; implicit unit µM.

Which IC50 is listed for COc1ccc(S(=O)(=O)N2CCc3cc(C=CC(=O)NO)cc(N)c32)cc1 ? 3.34
